Species: Rattus norvegicus
Assay: DrugMatrix - Regimen: Daily Repeat
Type: toxicity, organism-based, Sprague-Dawley
Parameters: regimen Daily Repeat, gender Male, age 6-8 weeks
Conditions: in vivo, po, 0 mg/kg, 72 h, tissue Blood, route oral GAVAGE, dose level Control, time 3 day, vehicle 100 % SALINE
outcome measure: HEMOGLOBIN (G/DL)
// return numeric value only (unit: G/DL, not printed)

Quick note, HEMOGLOBIN for CC(=O)OCC(CCn1cnc2cnc(N)nc21)COC(C)=O landed at 14.07

Quick note, HEMOGLOBIN for Cc1cc(CC(=O)O)n(C)c1C(=O)c1ccc(Cl)cc1 [ZOMEPIRAC] landed at 13.78

Quick note, HEMOGLOBIN for CCCc1nn(C)c2c(=O)[nH]c(-c3cc(S(=O)(=O)N4CCN(C)CC4)ccc3OCC)nc12 landed at 14.07

Quick note, HEMOGLOBIN for Oc1ccccc1O landed at 13.78

###

Species: Rattus norvegicus
Experiment: DrugMatrix - Regimen: Daily Repeat
Format: toxicity, organism-based, Sprague-Dawley
Set-up: regimen Daily Repeat, gender Male, age 6-8 weeks
Conditions: in vivo, po, 0 mg/kg, 72 h, tissue Blood, route oral GAVAGE, dose level Control, time 3 day, vehicle 100 % WATER
Label key: 1.0 means ABSOLUTE MONOCYTE under 60 CELLS/uL; 0.0 means ABSOLUTE MONOCYTE of 60 CELLS/uL or more.

OCCO [ETHYLENE GLYCOL] :: 1.0
CCCc1nn(C)c2c(=O)[nH]c(-c3cc(S(=O)(=O)N4CCN(C)CC4)ccc3OCC)nc12 :: 1.0
CN1C2CCCC1CC(NC(=O)c1nn(C)c3ccccc13)C2 (stereo not given) [GRANISETRON] :: 0.0
CNS(=O)(=O)Cc1ccc2[nH]cc(CCN(C)C)c2c1 :: 0.0
O=P1(N(CCCl)CCCl)NCCCO1 (stereo not given) [CYCLOPHOSPHAMIDE ANHYDROUS] :: 1.0

*Q* is_below(ABSOLUTE MONOCYTE, 60 CELLS/uL) for CC[C@H]1OC(=O)[C@H](C)[C@@H](O[C@H]2C[C@@](C)(OC)[C@@H](O)[C@H](C)O2)[C@H](C)[C@@H](O[C@@H]2O[C@H](C)C[C@H](N(C)C)[C@H]2O)[C@](C)(OC)C[C@@H](C)C(=O)[C@H](C)[C@@H](O)[C@]1(C)O [CLARITHROMYCIN] ?
*A* 0.0

*Q* is_below(ABSOLUTE MONOCYTE, 60 CELLS/uL) for Nc1ccc(S(=O)(=O)Nc2nccs2)cc1 [SULFATHIAZOLE] ?
*A* 0.0

*Q* is_below(ABSOLUTE MONOCYTE, 60 CELLS/uL) for O=C(O)c1cccnc1 [NIACIN] ?
*A* 0.0

*Q* is_below(ABSOLUTE MONOCYTE, 60 CELLS/uL) for CC(C)(C)NC[C@H](O)COc1nsnc1N1CCOCC1 [TIMOLOL] ?
*A* 0.0

*Q* is_below(ABSOLUTE MONOCYTE, 60 CELLS/uL) for Cc1c(N(C)CS(=O)(=O)[O-])c(=O)n(-c2ccccc2)n1C.[Na+] [DIPYRONE SODIUM] ?
*A* 0.0

###

Overview of recorded CHLORIDE for various compounds
Organism: Rattus norvegicus
Test: DrugMatrix - Regimen: Daily Repeat
Format: toxicity, organism-based, Sprague-Dawley
Set-up: regimen Daily Repeat, gender Male, age 6-8 weeks
Conditions: in vivo, po, 0 mg/kg, 120 h, tissue Plasma, route oral GAVAGE, dose level Control, time 5 day, vehicle 100 % SALINE
// return numeric value only (unit: MEQ/L, not printed)

These solved cases illustrate the format of a correct answer.
CCCc1nn(C)c2c(=O)[nH]c(-c3cc(S(=O)(=O)N4CCN(C)CC4)ccc3OCC)nc12 :: 100.5
CC(=O)OCC(CCn1cnc2cnc(N)nc21)COC(C)=O :: 100.5
Oc1ccccc1O :: 104.4

Let's switch to this compound now.
Quick note, CHLORIDE for Cc1cc(CC(=O)O)n(C)c1C(=O)c1ccc(Cl)cc1 [ZOMEPIRAC] landed at 104.4

###

Overview of recorded PHOSPHORUS for various molecules
Species: Rattus norvegicus
Assay: DrugMatrix - Regimen: Daily Repeat
Assay type: toxicity, organism-based, Sprague-Dawley
Parameters: regimen Daily Repeat, gender Male, age 6-8 weeks
Details: in vivo, po, 1500 mg/kg, 72 h, tissue Plasma, route oral GAVAGE, dose level High, time 3 day, vehicle .5 % CMC
// return numeric value only (unit: mg/dL, not printed)

Quick note, PHOSPHORUS for Nc1nc2c(c(=O)[nH]1)N(C=O)C(CNc1ccc(C(=O)N[C@@H](CCC(=O)O)C(=O)O)cc1)CN2 (stereo not given in full) landed at 13.4

Quick note, PHOSPHORUS for CCOC(=O)[C@H](CCc1ccccc1)N[C@@H](C)C(=O)N1CCC[C@H]1C(=O)O landed at 12.8

Quick note, PHOSPHORUS for O=c1cc(-c2ccccc2)oc2ccc3ccccc3c12 landed at 13.27

Quick note, PHOSPHORUS for C[C@@H](O)[C@H]1C(=O)N2C(C(=O)O)=C(S[C@@H]3CN[C@H](C(=O)N(C)C)C3)[C@H](C)[C@H]12 landed at 11.83

Quick note, PHOSPHORUS for CC(C)(Sc1cc(C(C)(C)C)c(O)c(C(C)(C)C)c1)Sc1cc(C(C)(C)C)c(O)c(C(C)(C)C)c1 landed at 12.87

###

Species: Rattus norvegicus
Format: toxicity, organism-based, Sprague-Dawley
Conditions: in vivo, po, 1200 mg/kg, 24 h, tissue Blood, route oral GAVAGE, dose level High, time 1 day, […]
Description: DrugMatrix - Regimen: Single
outcome measure: ABSOLUTE MONOCYTE (cells/µL)
// return numeric value only (unit: cells/µL, not printed)

Quick note, ABSOLUTE MONOCYTE for CC[C@H](C)C(=O)O[C@H]1C[C@H](O)C=C2C=C[C@H](C)[C@H](CC[C@@H](O)C[C@@H](O)CC(=O)O)[C@H]21 landed at 270

###

Species on record: Rattus norvegicus
Assay: DrugMatrix - Regimen: Daily Repeat
Type: toxicity, organism-based, Sprague-Dawley
Design: regimen Daily Repeat, gender Male, age 6-8 weeks
Settings: in vivo, po, 0 mg/kg, 120 h, tissue Plasma, route oral GAVAGE, dose level Control, time 5 day, vehicle 100 % SALINE
outcome measure: CHOLESTEROL

These solved cases illustrate the format of a correct answer.
CC(=O)OCC(CCn1cnc2cnc(N)nc21)COC(C)=O :: 74.33 mg/dL
Oc1ccccc1O :: 69.5 mg/dL
Cc1cc(CC(=O)O)n(C)c1C(=O)c1ccc(Cl)cc1 [ZOMEPIRAC] :: 69.5 mg/dL

Let's switch to this molecule now.
Quick note, CHOLESTEROL for CCCc1nn(C)c2c(=O)[nH]c(-c3cc(S(=O)(=O)N4CCN(C)CC4)ccc3OCC)nc12 landed at 74.33 mg/dL

###

Organism: Rattus norvegicus
Experiment: DrugMatrix - Regimen: Daily Repeat
Assay type: toxicity, organism-based, Sprague-Dawley
Set-up: regimen Daily Repeat, gender Male, age 6-8 weeks
Conditions: in vivo, po, 0 mg/kg, 72 h, tissue Blood, route oral GAVAGE, dose level Control, time 3 day, vehicle .5 % CMC
Overview of recorded LYMPHOCYTE for various molecules
// return numeric value only (unit: %, not printed)

These solved cases illustrate the format of a correct answer.
CCOC(=O)[C@H](CCc1ccccc1)N[C@@H](C)C(=O)N1Cc2ccccc2C[C@H]1C(=O)O :: 89.83
C=C(CC)C(=O)c1ccc(OCC(=O)O)c(Cl)c1Cl :: 84.8

Let's switch to this molecule now.
Quick note, LYMPHOCYTE for CO[C@H]1C[C@@H]2CC[C@@H](C)[C@@](O)(O2)C(=O)C(=O)N2CCCC[C@H]2C(=O)O[C@H]([C@H](C)C[C@@H]2CC[C@@H](O)[C@H](OC)C2)CC(=O)[C@H](C)/C=C(\C)[C@@H](O)[C@@H](OC)C(=O)[C@H](C)C[C@H](C)/C=C/C=C/C=C/1C landed at 90.33

###

Species on record: Rattus norvegicus
Assay: DrugMatrix - Regimen: Daily Repeat
Assay type: toxicity, organism-based, Sprague-Dawley
Set-up: regimen Daily Repeat, gender Male, age 6-8 weeks
Conditions: in vivo, po, 100 mg/kg, 120 h, tissue Blood, route oral GAVAGE, dose level Low, time 5 day, vehicle .5 % CMC
Overview of recorded EOSINOPHIL for various molecules
// return numeric value only (unit: %, not printed)

CC[C@]1(O)CC[C@H]2[C@@H]3CCC4=CCCC[C@@H]4[C@H]3CC[C@@]21C :: 0.23

Quick note, EOSINOPHIL for Nc1nc2c(c(=O)[nH]1)N(C=O)C(CNc1ccc(C(=O)N[C@@H](CCC(=O)O)C(=O)O)cc1)CN2 (some centres undefined) landed at 0.33

Quick note, EOSINOPHIL for CC=Cc1ccc(O)c(OC)c1 landed at 3

Quick note, EOSINOPHIL for C#C[C@]1(O)CC[C@H]2[C@@H]3CCC4=Cc5oncc5C[C@]4(C)[C@H]3CC[C@@]21C landed at 0.33
